Measured melting point, listed per entry.
Return type: number; implicit unit °C.

Known results for compounds:
Input "NC(=O)Cn1nc(Nc2cccc(C(F)(F)F)c2)nc1-c1ccc2c(c1)OCCO2" , output reported melting point. 225.5

Name the recorded melting point of the compound listed here: "CN(C)C(=O)CCn1nc(Nc2cccc(OC(F)(F)F)c2)nc1-c1ccc(N)c(F)c1" 157.1

Input "CN(C)C(=O)CCn1nc(Nc2ccc(F)c(C(F)(F)F)c2)nc1-c1ccnc(NC2CC2)c1" , output reported melting point. 219.8

Name the recorded melting point of the item "CN(C)C(=O)CCn1nc(Nc2ccc3c(c2)OC(F)(F)O3)nc1-c1ccncc1F" in your answer. 201.5

Answer with the recorded melting point for the compound listed here: "COCCn1nc(Nc2cccc(C(F)(F)F)c2)nc1-c1ccncc1" 147.2

Next:
Look up melting point of "C[C@H](O)Cn1nc(Nc2ccc(F)c(F)c2)nc1-c1ccnc(C2CC2)c1" and report it. 131.4

Determine its reported melting point: "CC(C)Oc1cc(-c2nc(Nc3cccc(C(F)(F)F)c3)nn2CCO)ccn1" 159

For "CN(C)C(=O)CCn1nc(Nc2ccc(F)c(C(F)(F)F)c2)nc1-c1ccc(C2CC2)nc1" , write its melting point. 177.3

Specify melting point for "CCNc1cc(-c2nc(Nc3cc(F)c(F)c(F)c3)nn2C[C@H](C)O)ccn1" and stop. 165.1

Quick one: give measured melting point for "CCNC(=O)Cn1nc(Nc2cc(F)c(F)c(F)c2)nc1-c1ccnc(NCC)c1" 259.6

State, in one line, measured melting point of "CC(=O)CCCn1nc(Nc2ccc(F)c(C(F)(F)F)c2)nc1-c1ccnc(C)c1" 124.1

Give reported melting point value for Cc1cc(-c2nc(Nc3ccc4c(c3)OC(F)(F)O4)nn2CC(=O)NC2CCOC2)ccn1 (centres unmarked) 253.8

====

Note to self: values exactly at 200 °C are MET. So melting point at or above 200 °C is MET, below is NOT MET.

# check: melting point of "CCOc1ccc(-c2nc(Nc3ccc(F)cc3)nn2CCO)cn1" is greater than or equal to 200 °C NOT MET

Hello, I need to know if "CNC(=O)Cn1nc(Nc2ccc(F)c(C(F)(F)F)c2)nc1-c1ccncc1F" has measured melting point not below 200 °C. Thanks! MET

Hi team, for "CC1(NC(=O)Cn2nc(Nc3cccc(OC(F)(F)F)c3)nc2-c2ccc3c(c2)OCCO3)CC1" , is the recorded melting point at or above 200 °C? MET

Please indicate if the recorded melting point for "CCNC(=O)Cn1nc(Nc2ccc3c(c2)OC(F)(F)O3)nc1-c1ccnc2c1CCC2" meets or exceeds 200 °C. MET

Quick check, melting point >= 200 °C? "OCCn1nc(Nc2ccc(F)cc2)nc1-c1ccc(C2CC2)nc1" NOT MET

***
# bool: melting point of "OCCn1nc(Nc2cccc(C(F)(F)F)c2)nc1-c1ccc(C2CC2)nc1" >= 200 °C NOT MET

Threshold query (melting point >= 200 °C) on "N/C(CCn1nc(Nc2ccc(F)c(C(F)(F)F)c2)nc1-c1ccnc(Cl)c1)=N\O" NOT MET

I'd appreciate it if you could say whether CC(O)Cn1nc(Nc2cccc(OC(F)(F)F)c2)nc1-c1ccc(C2CC2)nc1 (stereo not drawn) has melting point at least equal to 200 °C. NOT MET

Given the entry "Cc1nc(CCn2nc(Nc3ccc(F)c(C(F)(F)F)c3)nc2-c2ccnc(Cl)c2)no1" , answer whether its melting point meets or surpasses 200 °C. NOT MET

Record "COc1ccc(Nc2nc(-c3ccnc(C4CC4)c3)n(CCF)n2)cc1C(F)(F)F" ; criterion: melting point no lower than 200 °C. Met? NOT MET

Decide: is the reported value of melting point for "Cc1cc(-c2nc(Nc3ccc(F)c(C(F)(F)F)c3)nn2C[C@H](C)O)ccn1" equal to or greater than 200 °C? NOT MET

# bool: melting point of "CN(C)C(=O)CCn1nc(Nc2cc(F)c(F)cc2F)nc1-c1ccc(NC2CC2)nc1" >= 200 °C NOT MET

src = patent US8143419B2
